- Test system: NB4 cell line
- Experimental Protocol: leukemia cell growth inhibition, MTT
- Type: cell-based
- Assay Context: Homo sapiens, NB-4; NB4, 72 h
Reported IC50 values follow for various compounds
Answer format: numeric, µg/mL implied, no suffix.

Take a look at these entries with their results.
compound="COC(=O)[C@]12CCC(C)(C)CC1C1=CCC3[C@@]4(C)CC(C(=O)NCCCN5CCN(C)CC5)C(=O)C(C)(C)C4CC[C@@]3(C)[C@]1(C)CC2 (some centres unmarked) [BS-OA-078]" property_measured=IC50 reported=4.59
compound="COC(=O)[C@]12CCC(C)(C)CC1C1=CCC3[C@@]4(C)CC(C(=O)NCCN5CCCC5)C(=O)C(C)(C)C4CC[C@@]3(C)[C@]1(C)CC2 (some centres unmarked) [BS-OA-005]" property_measured=IC50 reported=2.73

[Q] What does the data say about its IC50? Entry: COC(=O)[C@]12CCC(C)(C)CC1C1=CCC3[C@@]4(C)CC(C(=O)NCCc5ccccn5)C(=O)C(C)(C)C4CC[C@@]3(C)[C@]1(C)CC2 (some centres unmarked) [BS-OA-032]
[A] 9.82

[Q] Please report the recorded IC50 for COC(=O)[C@]12CCC(C)(C)C[C@H]1C1=CC[C@@H]3[C@@]4(C)CC(C(=O)NCCN5CCCCC5)C(=O)C(C)(C)[C@@H]4CC[C@@]3(C)[C@]1(C)CC2 (some centres unmarked) [BS-OA-004] .
[A] 2.84

[Q] # IC50 lookup, item COCCCNC(=O)C1C[C@]2(C)[C@H]3CC=C4[C@@H]5CC(C)(C)CC[C@]5(C(=O)OC)CC[C@@]4(C)[C@]3(C)CC[C@H]2C(C)(C)C1=O (some centres unmarked) [BS-OA-052]
[A] 16

###

- System: U87 MG cell line
- Experimental Protocol: solid tumor cell growth inhibition, MTT
- Type: cell-based
- Assay Context: Homo sapiens, U-87 MG, 16 μg/mL compound, 72 h, read-out: IR (cell proliferation inhibition rate)
Property Measured: inhibition at 16 µg/mL (%)
Record the value in %, omitting the unit from your answer.

[Q] Name the recorded inhibition at 16 µg/mL for CN1CCN(CCCNC(=O)C2C[C@]3(C)[C@H]4CC=C5[C@@H]6CC(C)(C)CC[C@]6(C(=O)O)CC[C@@]5(C)[C@]4(C)CC[C@H]3C(C)(C)C2=O)CC1 (some centres unmarked) .
[A] -12.6

[Q] Need inhibition at 16 µg/mL, item COC(=O)[C@]12CCC(C)(C)C[C@H]1C1=CC[C@@H]3[C@@]4(C)CC(C(=O)NCC5CC5)C(=O)C(C)(C)[C@@H]4CC[C@@]3(C)[C@]1(C)CC2 (some centres unmarked)
[A] 5.6

[Q] Looking for the measured inhibition at 16 µg/mL of CCN(CC)CCCNC(=O)C1C[C@]2(C)[C@H]3CC=C4[C@@H]5CC(C)(C)CC[C@]5(C(=O)OC)CC[C@@]4(C)[C@]3(C)CC[C@H]2C(C)(C)C1=O (some centres unmarked) , can you help?
[A] 97.1

[Q] Tell me the measured inhibition at 16 µg/mL of COC(=O)[C@]12CCC(C)(C)CC1C1=CCC3[C@@]4(C)CC(C(=O)NCCCN(C)C)C(=O)C(C)(C)C4CC[C@@]3(C)[C@]1(C)CC2 (some centres unmarked) , please.
[A] 98.6

[Q] Would you mind telling me what inhibition at 16 µg/mL value was observed for COCCCNC(=O)C1C[C@]2(C)[C@H]3CC=C4[C@@H]5CC(C)(C)CC[C@]5(C(=O)OC)CC[C@@]4(C)[C@]3(C)CC[C@H]2C(C)(C)C1=O (some centres unmarked) ?
[A] 10.9

[Q] Sample CCC(C)CNC(=O)C1C[C@@]2(C)C(CC[C@]3(C)C2CC=C2C4CC(C)(C)CC[C@]4(C(=O)OC)CC[C@]23C)C(C)(C)C1=O (some centres unmarked) — what was its inhibition at 16 µg/mL?
[A] 30.1

[Q] Recorded inhibition at 16 µg/mL of COC(=O)[C@]12CCC(C)(C)CC1C1=CCC3[C@@]4(C)CC(C(=O)NCCCN5CCN(C)CC5)C(=O)C(C)(C)C4CC[C@@]3(C)[C@]1(C)CC2 (some centres unmarked) , please.
[A] 98.6

[Q] May I ask what inhibition at 16 µg/mL has been recorded for COC(=O)[C@]12CCC(C)(C)CC1C1=CCC3[C@@]4(C)CC(C(=O)NCCN5CCCC5)C(=O)C(C)(C)C4CC[C@@]3(C)[C@]1(C)CC2 (some centres unmarked) ?
[A] 100

[Q] What inhibition at 16 µg/mL value was documented for this compound, COC(=O)[C@]12CCC(C)(C)CC1C1=CCC3[C@@]4(C)CC(C(=O)NCCC(C)C)C(=O)C(C)(C)C4CC[C@@]3(C)[C@]1(C)CC2 (some centres unmarked) ?
[A] 5.3

[Q] Can you share its inhibition at 16 µg/mL? I mean this compound: COC(=O)[C@]12CCC(C)(C)CC1C1=CCC3[C@@]4(C)CC(C(=O)NCCc5cccnc5)C(=O)C(C)(C)C4CC[C@@]3(C)[C@]1(C)CC2 (some centres unmarked)
[A] 48.7

[Q] Please report the recorded inhibition at 16 µg/mL for CCN(CC)CCNC(=O)C1C[C@@]2(C)C(CC[C@]3(C)C2CC=C2C4CC(C)(C)CC[C@]4(C(=O)OC)CC[C@]23C)C(C)(C)C1=O (some centres unmarked) .
[A] 98.5

[Q] Could you tell me which inhibition at 16 µg/mL is on file for `CC1(C)CC[C@]2(C(=O)O)CC[C@]3(C)C(=CC[C@@H]4[C@@]5(C)CC[C@H](O)C(C)(C)[C@@H]5CC[C@]43C)[C@@H]2C1` ?
[A] 21.8

[Q] Item under review: COC(=O)[C@]12CCC(C)(C)C[C@H]1C1=CC[C@@H]3[C@@]4(C)CC(C(=O)NCCN5CCCCC5)C(=O)C(C)(C)[C@@H]4CC[C@@]3(C)[C@]1(C)CC2 (some centres unmarked) . Reported inhibition at 16 µg/mL?
[A] 98

[Q] Value lookup for inhibition at 16 µg/mL; key = CN(C)CCCNC(=O)C1C[C@@]2(C)C(CC[C@]3(C)C2CC=C2C4CC(C)(C)CC[C@]4(C(=O)O)CC[C@]23C)C(C)(C)C1=O (some centres unmarked)
[A] -3.8

[Q] Any idea what its inhibition at 16 µg/mL is? The compound is CC1(C)CC[C@]2(C(=O)O)CC[C@]3(C)C(=CC[C@@H]4[C@@]5(C)CC(C(=O)NCCN6CCCC6)C(=O)C(C)(C)[C@@H]5CC[C@]43C)[C@@H]2C1 (some centres unmarked)
[A] 61.7

[Q] Entry CCOCCNC(=O)C1C[C@@]2(C)C(CC[C@]3(C)C2CC=C2C4CC(C)(C)CC[C@]4(C(=O)OC)CC[C@]23C)C(C)(C)C1=O (some centres unmarked) has what inhibition at 16 µg/mL?
[A] 20.1

[Q] # get_value(readout='inhibition at 16 µg/mL', item= COC(=O)[C@]12CCC(C)(C)CC1C1=CCC3[C@@]4(C)CC(C(=O)NC5CC5)C(=O)C(C)(C)C4CC[C@@]3(C)[C@]1(C)CC2 (some centres unmarked) )
[A] 18.2

[Q] Entry COC(=O)[C@]12CCC(C)(C)CC1C1=CCC3[C@@]4(C)CC(C(=O)NCCCN5CCCC5)C(=O)C(C)(C)C4CC[C@@]3(C)[C@]1(C)CC2 (some centres unmarked) : reported inhibition at 16 µg/mL = ?
[A] 100

###

- System: CNE cell line
- Experimental Protocol: solid tumor cell growth inhibition, MTT
- Assay type: cell-based
- Assay Context: Homo sapiens, 72 h
So basically, if IC50 comes in under 4 µg/mL it's criterion met, and if it's 4 µg/mL or more it's criterion not met.

Recorded results for 3 molecules are shown here.
molecule="COC(=O)[C@]12CCC(C)(C)CC1C1=CCC3[C@@]4(C)CC(C(=O)NCCCN5CCOCC5)C(=O)C(C)(C)C4CC[C@@]3(C)[C@]1(C)CC2 (some centres unmarked)" label_value="criterion not met"
molecule="COC(=O)[C@]12CCC(C)(C)CC1C1=CCC3[C@@]4(C)CC(C(=O)NCCN5CCCC5)C(=O)C(C)(C)C4CC[C@@]3(C)[C@]1(C)CC2 (some centres unmarked)" label_value="criterion met"
molecule="COC(=O)[C@]12CCC(C)(C)CC1C1=CCC3[C@@]4(C)CC(C(=O)NCCCN5CCN(C)CC5)C(=O)C(C)(C)C4CC[C@@]3(C)[C@]1(C)CC2 (some centres unmarked)" label_value="criterion not met"

[Q] For this molecule, is IC50 lower than 4 µg/mL? CCN(CC)CCNC(=O)C1C[C@@]2(C)C(CC[C@]3(C)C2CC=C2C4CC(C)(C)CC[C@]4(C(=O)OC)CC[C@]23C)C(C)(C)C1=O (some centres unmarked)
[A] criterion met

[Q] A record lists CCOCCNC(=O)C1C[C@@]2(C)C(CC[C@]3(C)C2CC=C2C4CC(C)(C)CC[C@]4(C(=O)OC)CC[C@]23C)C(C)(C)C1=O (some centres unmarked) . Is its IC50 below 4 µg/mL?
[A] criterion not met

[Q] IC50 under 4 µg/mL? Item: COC(=O)[C@]12CCC(C)(C)C[C@H]1C1=CC[C@@H]3[C@@]4(C)CC(C(=O)NCCN5CCCCC5)C(=O)C(C)(C)[C@@H]4CC[C@@]3(C)[C@]1(C)CC2 (some centres unmarked)
[A] criterion not met

[Q] Dear reviewer, please state whether CC1(C)CC[C@]2(C(=O)O)CC[C@]3(C)C(=CC[C@@H]4[C@@]5(C)CC(C(=O)NCCN6CCCC6)C(=O)C(C)(C)[C@@H]5CC[C@]43C)[C@@H]2C1 (some centres unmarked) has IC50 strictly beneath 4 µg/mL.
[A] criterion not met

[Q] A record lists CCC(C)CNC(=O)C1C[C@@]2(C)C(CC[C@]3(C)C2CC=C2C4CC(C)(C)CC[C@]4(C(=O)OC)CC[C@]23C)C(C)(C)C1=O (some centres unmarked) . Is its IC50 below 4 µg/mL?
[A] criterion not met

[Q] Item CCN(CC)CCNC(=O)C1C[C@@]2(C)C(CC[C@]3(C)C2CC=C2C4CC(C)(C)CC[C@]4(C(=O)O)CC[C@]23C)C(C)(C)C1=O (some centres unmarked) : IC50 beneath 4 µg/mL, strictly?
[A] criterion not met

[Q] # strict comparison: is reported IC50 < 4 µg/mL? input = `CC1(C)CC[C@]2(C(=O)O)CC[C@]3(C)C(=CC[C@@H]4[C@@]5(C)CC[C@H](O)C(C)(C)[C@@H]5CC[C@]43C)[C@@H]2C1`
[A] criterion not met

[Q] Lab note: IC50 threshold 4 µg/mL. Does this molecule come in strictly under it? COC(=O)[C@]12CCC(C)(C)CC1C1=CCC3[C@@]4(C)CC(C(=O)NCCC(C)C)C(=O)C(C)(C)C4CC[C@@]3(C)[C@]1(C)CC2 (some centres unmarked)
[A] criterion not met
